Test system: NCI-H226 lung
Test: NCI-60 one-dose screen, 48 h
Conditions: 10 µM unless noted
Compounds without any hit were thinned out: in the full panel of roughly 83,000, 20% have a hit. Calls of active or inactive are those of the source. How the source made its calls: active means growth percent below 10; inactive means the rest.
Tick one outcome: true (active), false (inactive)

compound=COc1cc(C=Nc2oc(-c3ccccc3)c(-c3ccccc3)c2C#N)cc(CN2CCCC2)c1O measured_target="NCI-H226 lung" category_label=false

Inquiry: Please let me know the test result on file for "CN1c2ccccc2S(=O)(=O)n2c(SCC(=O)Nc3nc4ccc(F)cc4s3)nnc21" .
Reply text: false

Inquiry: Dear all, I need the recorded test outcome for "CC(C)Cc1nc(Nc2ccccc2)[nH]c(=O)c1C#N" , thank you.
Reply text: false

Inquiry: Can you look up the reported call for "NCCCNc1nc2ccccc2c2c(=O)c3cc(Cl)ccc3sc12" for me?
Reply text: false
